Assay: Aqueous solubility
Assay type: physicochemical
Conditions: water, pH 7.0, 25° C.
Description: Further, several compounds of formula (I), in particular when R2 is hydroxy, and when R1 is hydroxymethyl, have enhanced water solubility as compared to the vast majority of MMP inhibitors of the prior art. An aqueous solubility threshold, which may vary widely but can be roughly set in the range of 1-10 mg/mL, makes systemic administration easy, and more than often is essential to good oral bioavailability.

# compound, comparator, solubility / µg/mL
records = [
    ("CNC(=O)[C@@H](NC(=O)[C@H](CC(C)C)[C@](O)(COC(C)=O)C(=O)NO)C(C)(C)C [Example 9]", ">", 9000),
    ("CC(=O)OC[C@](O)(C(=O)NO)[C@@H](CC(C)C)C(=O)N[C@H](C(=O)Nc1ccncc1)C(C)(C)C [Example 11]", "=", 3400),
    ("CNC(=O)[C@@H](NC(=O)[C@H](CC(C)C)[C@](O)(COC(=O)C(C)(C)C)C(=O)NO)C(C)(C)C [Example 13]", "=", 1300),
    ("CC(C)C[C@@H](C(=O)N1CCCCC1)[C@](O)(CO)C(=O)NO [Example 24]", ">", 6000),
    ("CC(C)C[C@@H](C(=O)N[C@H](C(=O)Nc1ccncc1)C(C)(C)C)[C@](O)(CO)C(=O)NO [Example 12]", ">", 10000),
    ("CC(=O)OC[C@](O)(C(=O)NO)[C@@H](CC(C)C)C(=O)N1CCCCC1 [Example 23]", "=", 5000),
    ("CC(C)C[C@@H](C(=O)N1CCOCC1)[C@](O)(COC(=O)C(C)(C)C)C(=O)NO [Example 25]", ">", 8000),
    ("CNC(=O)[C@H](Cc1ccccc1)NC(=O)[C@H](CC(C)C)C1(C(=O)NO)CC1 [Example 20]", "=", 5800),
]
